B1: CCDC6 (parent)
chain: TLFKKIQALQKEKETLAVNYEKEE

variants of: B1; assay: protein stability index of a GFP-peptide fusion (GPS, HEK-293T) (PSI 1-6); higher = more stable; conditions: c terminus: a fixed tail appended;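 further: lentivirally expressed fusions sorted by FACS into six bins by GFP to DsRed ratio, PSI derived from sequencing read proportions per bin multiplied by bin number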
Assignment: determine reported protein stability index for the given variants.
Form rule: numeric answer, no unit written next to it.

Identify measured protein stability index associated with TLFKKIQALQKEKETLAKNYEKEE [V18K] 3.43

Identify measured protein stability index associated with TLSKKIQALQKEKETLAVNYEKEE [F3S] 4.62

Identify measured protein stability index associated with TLFKKIQALQWEKETLAVNYEKEE [K11W] 2.28

Identify measured protein stability index associated with TLFKKIQATQKEKETLAVNYEKEE [L9T] 4.6

Identify measured protein stability index associated with TLFKKIQALQKEKETLAVNTEKEE [Y20T] 3.62

Identify measured protein stability index associated with TLFKKIQALQKEKETLAVNYEKPE [E23P] 2.25

Identify measured protein stability index associated with TLFKKIQALQKEKETLAVNYEKEF [E24F] 2.04

Identify measured protein stability index associated with TLFKKIQALQKEKETLAVNYRKEE [E21R] 2.36

Identify measured protein stability index associated with TLFKKIQALQKEKYTLAVNYEKEE [E14Y] 2.05

Identify measured protein stability index associated with TLFKKIQALLKEKETLAVNYEKEE [Q10L] 2.45

Identify measured protein stability index associated with TLFKKIQALQKEKEHLAVNYEKEE [T15H] 2.76

Identify measured protein stability index associated with TTFKKIQALQKEKETLAVNYEKEE [L2T] 5.1

Identify measured protein stability index associated with TLFKKIQALYKEKETLAVNYEKEE [Q10Y] 2.64

Identify measured protein stability index associated with TLFKKIQALRKEKETLAVNYEKEE [Q10R] 2.64

Identify measured protein stability index associated with TSFKKIQALQKEKETLAVNYEKEE [L2S] 4.83

Identify measured protein stability index associated with TLGKKIQALQKEKETLAVNYEKEE [F3G] 5.23

Identify measured protein stability index associated with TLFKKIRALQKEKETLAVNYEKEE [Q7R] 2.98

Identify measured protein stability index associated with TLFKKIQALQKEKETLAVNWEKEE [Y20W] 3.26

Identify measured protein stability index associated with TLFKKIQALQKEEETLAVNYEKEE [K13E] 3.78

Identify measured protein stability index associated with TLFKKIQALQKEKETLAVNYEMEE [K22M] 3.08

Identify measured protein stability index associated with TLAKKIQALQKEKETLAVNYEKEE [F3A] 4.68

Identify measured protein stability index associated with TCFKKIQALQKEKETLAVNYEKEE [L2C] 4.55

Identify measured protein stability index associated with TLFKKIQALQKEKETLAVNYEKER [E24R] 2.1

Identify measured protein stability index associated with TLFKKIQALQKEKETLAVNYEKYE [E23Y] 2.76

Identify measured protein stability index associated with TLFKKIQALQKEKETLAVNYEKME [E23M] 2.7

Identify measured protein stability index associated with TLFKKIQYLQKEKETLAVNYEKEE [A8Y] 2.75

Identify measured protein stability index associated with TLFKKIQALQTEKETLAVNYEKEE [K11T] 2.89

Identify measured protein stability index associated with TLVKKIQALQKEKETLAVNYEKEE [F3V] 3.76

Identify measured protein stability index associated with TLFKKIQSLQKEKETLAVNYEKEE [A8S] 3.47

Identify measured protein stability index associated with TLFKKIQALQKEKETLAVNYMKEE [E21M] 2.11

Identify measured protein stability index associated with TLFKKDQALQKEKETLAVNYEKEE [I6D] 5.34

Identify measured protein stability index associated with TLFKKIQALQKEKETLAVNHEKEE [Y20H] 3.62

Identify measured protein stability index associated with TLFKKIQALQKEKESLAVNYEKEE [T15S] 2.91

Identify measured protein stability index associated with TLFKKIQALQKEKETLAVNYEREE [K22R] 2.94

Identify measured protein stability index associated with TLFHKIQALQKEKETLAVNYEKEE [K4H] 3.88

Identify measured protein stability index associated with PLFKKIQALQKEKETLAVNYEKEE [T1P] 3.71

Identify measured protein stability index associated with TLFKKIQALQKEKETLAVNYEKGE [E23G] 2.58

Identify measured protein stability index associated with TLFKKIQALQKFKETLAVNYEKEE [E12F] 1.85

Identify measured protein stability index associated with TLFKKIQALQKYKETLAVNYEKEE [E12Y] 2.11

Identify measured protein stability index associated with TLFKKIQHLQKEKETLAVNYEKEE [A8H] 3.25

Identify measured protein stability index associated with TLFYKIQALQKEKETLAVNYEKEE [K4Y] 2.58

Identify measured protein stability index associated with TIFKKIQALQKEKETLAVNYEKEE [L2I] 3.4

Identify measured protein stability index associated with TLFKKIQALQKEKEGLAVNYEKEE [T15G] 3.25

Identify measured protein stability index associated with WLFKKIQALQKEKETLAVNYEKEE [T1W] 1.88

Identify measured protein stability index associated with TLFKKIQALQKEKERLAVNYEKEE [T15R] 2.88

Identify measured protein stability index associated with TLFKKIQALMKEKETLAVNYEKEE [Q10M] 2.42

Identify measured protein stability index associated with TLFKKIQALNKEKETLAVNYEKEE [Q10N] 2.89
